Assay: NCI Yeast Anticancer Drug Screen. Data for the bub3 strain (AID 167)
Conditions: S. cerevisiae bub3 mutant strain, at 50.0 µM, active compounds read high
Compounds without any hit were thinned out: in the full panel of roughly 79,000, 15% have a hit.
Lab note: compare growth inhibition against 10%. Equal or greater, write YES. Smaller, write NO.

O=Cc1ccccc1[N+](=O)[O-]	NO
O=C(CCCC(=O)Nc1ccccc1)Nc1ccccc1	NO
CC(C)(C)n1c(=O)n(C(=O)C(Cl)(Cl)Cl)n(C(=O)C(Cl)(Cl)Cl)c1=O	NO
N=c1nc2n(cc1F)C1OC(CO)C(O)C1O2 (stereo not drawn)	NO
O=[N+]([O-])c1ccc(-c2csc(Nc3ccccn3)n2)o1	YES
c1ccc2c3c([nH]c2c1)C1(CCCCC1)c1c([nH]c2ccccc12)C31CCCCC1	NO
COc1ccc(S(=O)(=O)O)cc1NC(=O)CC(=O)c1cccc([N+](=O)[O-])c1	NO
CCN(CC)c1ccc2c(c1)C(O)c1ccccc1-2 (stereo not drawn)	YES

Problem: Is reported growth inhibition greater than or equal to 10% here: CCN(CC)Cc1cc(Nc2ccnc3ccc4nn(C)nc4c23)ccc1O
Solution: NO

Problem: Proceed to O=C(O)C(=O)O.[NH-]CC(O)CN(CC(O)CO)c1ccccc1.[Pt+2] (stereo not drawn)
Solution: NO

Problem: Proceed to O=c1oc2ccccc2c(N2CCCCC2)c1Cl
Solution: YES

Problem: Proceed to CN(C)Cc1[nH]c2ccccc2c1C(=O)c1ccccc1
Solution: NO

Problem: Proceed to COC1=C(OC)C(=O)c2cc(SC)c(=O)c(SC)cc2C1=O
Solution: NO

Problem: Proceed to Fc1ccc(N=Cc2ccc(C=Nc3ccc(F)cc3)cc2)cc1
Solution: YES

Problem: Proceed to C(=C\C(Sc1ccccc1)c1ccccc1)/NNC1=NC(c2ccccc2)C(c2ccccc2)=NN1 (stereo not drawn)
Solution: NO

* * *

Assay: NCI Yeast Anticancer Drug Screen. Data for the bub3 strain (AID 167)
Conditions: S. cerevisiae bub3 mutant strain, at 50.0 µM, active compounds read high
Compounds without any hit were thinned out: in the full panel of roughly 79,000, 15% have a hit. Calls of active or inactive are those of the source. Rule as the data show it: active = growth inhibition above about 70%; inactive = the rest.
# growth inhibition per record follows

Nc1nc(N)nc(CCC(Br)(Br)Br)n1	21.9% (inactive)
CCOC1(OCC)C2(Cl)C(Cl)=C(Cl)C1(Cl)C1CCCC12 (stereo not given)	-12.7% (inactive)
COc1ccccc1NC(=O)C1=C(C)NC(C)=C(C(=O)Nc2ccccc2OC)C1C1=CC=COC1	13.1% (inactive)
CCCCNCCCNCCCC	25.5% (inactive)
O=c1onc2n1-c1cc(Cl)ccc1C(=S)N1CSCC21 (stereo not given)	2.5% (inactive)

Problem: Give its growth inhibition value. Item: N#CNC(=NCC1CCCO1)Nc1cccnc1 (stereo not given)
Solution: 23.9% (inactive)

Problem: Proceed to O=C(C1CC=CCC1C(=O)N1CCCCC1)N1CCCCC1 (stereo not given)
Solution: 9.1% (inactive)

* * *

# growth inhibition per record follows
Assay: NCI Yeast Anticancer Drug Screen. Data for the cln2 rad14 strain (AID 165);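 also: 0% = growth equal to vehicle treated cultures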
Settings: S. cerevisiae cln2 rad14 strain, at 50.0 µM, active compounds read high
Compounds without any hit were thinned out: in the full panel of roughly 79,000, 15% have a hit.
Give a bare numeral; the unit % is implied.

Before answering, review these 2 worked examples.
Cn1nnc2c(C(N)=S)ncn2c1=O	19.6
COC(=O)N/N=C(/C)c1ccco1	1.55

Problem: Give its growth inhibition value. Item: Oc1ccc(-c2ccc(Br)cc2)cc1
Solution: -2

Problem: Proceed to O=C1CCc2cc3c(cc21)OCO3
Solution: -9.35

Problem: Proceed to CCCCCCCCCCCC(=O)Nc1ccc(NC(C)=O)cc1
Solution: -14

Problem: Proceed to C#CC(C)(O)CCCCCCC (configuration not stated)
Solution: -22.8

Problem: Proceed to O=c1c(O)c(-c2cc(O)c(O)c(O)c2)oc2cc(O)ccc12
Solution: -8.8
